- SYSTEM UNDER TEST: JARID1B (Homo sapiens)
- Construct: The FLAG tagged full length JARID1B enzyme was expressed in Sf21 insect cells using FLAG-JARID1B baculoviruses; FLAG (N); made in house; host or cells: Sf21 insect cells (baculovirus)
- Sequence (Q9UGL1 whole entry): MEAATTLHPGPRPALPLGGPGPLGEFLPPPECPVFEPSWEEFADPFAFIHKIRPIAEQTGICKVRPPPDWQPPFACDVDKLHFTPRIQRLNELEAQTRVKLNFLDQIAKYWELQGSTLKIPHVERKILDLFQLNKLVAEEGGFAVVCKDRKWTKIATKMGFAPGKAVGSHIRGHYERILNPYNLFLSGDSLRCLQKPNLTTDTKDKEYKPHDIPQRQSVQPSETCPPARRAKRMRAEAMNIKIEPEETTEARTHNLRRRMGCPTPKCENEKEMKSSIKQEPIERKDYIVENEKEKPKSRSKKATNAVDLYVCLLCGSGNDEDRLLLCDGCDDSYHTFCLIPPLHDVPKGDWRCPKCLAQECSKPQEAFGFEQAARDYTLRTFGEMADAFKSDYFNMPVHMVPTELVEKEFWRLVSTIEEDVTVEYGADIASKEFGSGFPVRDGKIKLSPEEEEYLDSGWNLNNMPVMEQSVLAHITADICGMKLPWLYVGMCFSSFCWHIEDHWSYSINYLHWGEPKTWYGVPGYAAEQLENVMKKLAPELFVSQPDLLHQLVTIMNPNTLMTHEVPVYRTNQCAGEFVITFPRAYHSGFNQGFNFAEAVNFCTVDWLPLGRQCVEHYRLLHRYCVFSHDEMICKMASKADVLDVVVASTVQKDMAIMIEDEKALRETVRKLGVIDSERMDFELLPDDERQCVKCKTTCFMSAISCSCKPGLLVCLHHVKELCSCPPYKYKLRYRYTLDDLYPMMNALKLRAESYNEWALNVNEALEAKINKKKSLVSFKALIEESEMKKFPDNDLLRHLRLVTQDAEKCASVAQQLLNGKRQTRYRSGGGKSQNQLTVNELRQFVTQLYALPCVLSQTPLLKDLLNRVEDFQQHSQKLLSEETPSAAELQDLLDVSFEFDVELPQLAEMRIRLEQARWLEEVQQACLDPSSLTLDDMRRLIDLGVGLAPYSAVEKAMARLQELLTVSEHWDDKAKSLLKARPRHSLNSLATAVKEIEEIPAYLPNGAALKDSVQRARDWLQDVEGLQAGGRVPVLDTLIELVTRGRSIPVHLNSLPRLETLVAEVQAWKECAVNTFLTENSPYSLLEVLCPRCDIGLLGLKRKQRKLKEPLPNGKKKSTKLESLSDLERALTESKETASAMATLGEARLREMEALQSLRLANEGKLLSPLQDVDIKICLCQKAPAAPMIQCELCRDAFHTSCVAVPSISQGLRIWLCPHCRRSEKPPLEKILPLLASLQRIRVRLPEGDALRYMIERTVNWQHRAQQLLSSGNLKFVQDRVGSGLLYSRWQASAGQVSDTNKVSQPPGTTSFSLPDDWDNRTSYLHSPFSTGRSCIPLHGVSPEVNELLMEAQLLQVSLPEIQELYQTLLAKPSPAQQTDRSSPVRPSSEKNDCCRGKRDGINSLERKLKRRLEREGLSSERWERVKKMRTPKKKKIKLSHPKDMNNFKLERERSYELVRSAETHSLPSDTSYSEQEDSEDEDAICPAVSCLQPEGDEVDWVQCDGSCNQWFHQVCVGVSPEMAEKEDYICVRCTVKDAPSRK
- PROTOCOL SUMMARY: FLAG-JARID1B histone demethylase assay with AlphaScreen detection (HTS and dose response);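 also: FLAG-tagged JARID1B at 4 nM acting on a biotinylated H3K4me3 peptide, demethylation read by AlphaScreen luminescence, with hits checked against bio-H3K4me2 without enzyme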;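 also: compound tested at 20 µM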
- Format: biochemical
- CONDITION SET: validation of HTS actives; effect of compound in JARID1B AlphaScreen assay
PROPERTY: Assay Signal (percent) (%)
Answers are plain numbers, in %.

For each of the compounds below, state Assay Signal (percent).
1. COC(=O)c1cc(Br)c(OCc2ccccc2)c(CO[Si](C(C)(C)C)(C(C)(C)C)C(C)(C)C)c1OCc1ccccc1 [YU221143]
2. Oc1c(C(Nc2ccc(Cl)cc2)c2cccnc2)ccc2cccnc12 (centres unmarked) [YU172165]
3. CCCSc1nc2c3c(sc2c(=O)[nH]1)CC(C)(CC)OC3 (centres unmarked) [YU153031]
4. O=c1c(-c2cc(O)c(O)c(O)c2)coc2cc(O)c(O)c(O)c12 [YU155411, IRIGENOL, reference compound]

22.60
43.01
9.27
22.64

Kindly give each listed record's Assay Signal (percent).
1. CC(=O)C(C)O[Si](C(C)C)(C(C)C)C(C)C (centres unmarked) [YU035082]
2. C=CCn1c(Cc2nc3ccccc3[nH]2)n[nH]c1=S [YU147658]
3. C[n+]1cc2c3c(ccc2c2ccc4cc5c(cc4c21)OCO5)OCO3.O=S(=O)([O-])O [YU155443, SANGUINARINE SULFATE, reference compound]
4. C=CCNCCCCOc1cccc(OCC)c1 [YU146294]

1. 22.36
2. 27.63
3. 5.51
4. 14.08

---

- PROTOCOL SUMMARY: AlphaScreen counterscreen against bio-H3K4me2 peptide in the absence of enzyme (artifact signal);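 also: counterscreen run without enzyme against bio-H3K4me2 peptide to remove false positive hits from the JARID1 demethylase AlphaScreen screen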
- CONDITION SET: effect of the compound when incubated with bio-H3K4me2 peptide (counterscreen, no enzyme)
Provide the recorded Artifact Signal (percent) for the entries that follow.
One number for each entry, in %.

# annotated cases, reported Artifact Signal (percent) shown
COc1cccc(O)c1O [YU155465, 3-METHOXYCATECHOL, reference compound] ... 7.97
CNC[C@H](O)c1ccc(O)c(O)c1 [YU033809, ADRENALINE BITARTRATE, reference compound] ... −6.64
O=c1c(O)c(-c2ccc(O)c(O)c2)oc2c(O[C@@H]3O[C@H](CO)[C@@H](O)[C@H](O)[C@H]3O)c(O)cc(O)c12 [YU153353, GOSSYPIN, reference compound] ... 61.80
COc1cc(C=O)ccc1OC(=O)c1ccncc1 ... −5.12

Parameter requested: Artifact Signal (percent). Apply to each item below.
1. CC(O)Cc1nnc(S)n1-c1ccccc1 (centres unmarked)
2. Cn1c(C(C#N)=Cc2ccncc2)nc2ccccc21 (single isomer, unassigned)

["−7.79", "−6.95"]

For each of the compounds below, state Artifact Signal (percent).
1. Oc1cc2c(cc1O)C1c3ccc(O)c(O)c3OCC1(O)C2 (centres unmarked) [YU155005, HAEMATOXYLIN, reference compound]
2. c1ccc(CCc2nn3c(-c4ccncc4)nnc3s2)cc1

1. 34.32
2. 3.65
